Below, each entry is listed alongside its reported Ki.
# measurementTarget: Leucine--tRNA ligase (Escherichia coli (strain K12))
# Sequence (P07813 whole entry): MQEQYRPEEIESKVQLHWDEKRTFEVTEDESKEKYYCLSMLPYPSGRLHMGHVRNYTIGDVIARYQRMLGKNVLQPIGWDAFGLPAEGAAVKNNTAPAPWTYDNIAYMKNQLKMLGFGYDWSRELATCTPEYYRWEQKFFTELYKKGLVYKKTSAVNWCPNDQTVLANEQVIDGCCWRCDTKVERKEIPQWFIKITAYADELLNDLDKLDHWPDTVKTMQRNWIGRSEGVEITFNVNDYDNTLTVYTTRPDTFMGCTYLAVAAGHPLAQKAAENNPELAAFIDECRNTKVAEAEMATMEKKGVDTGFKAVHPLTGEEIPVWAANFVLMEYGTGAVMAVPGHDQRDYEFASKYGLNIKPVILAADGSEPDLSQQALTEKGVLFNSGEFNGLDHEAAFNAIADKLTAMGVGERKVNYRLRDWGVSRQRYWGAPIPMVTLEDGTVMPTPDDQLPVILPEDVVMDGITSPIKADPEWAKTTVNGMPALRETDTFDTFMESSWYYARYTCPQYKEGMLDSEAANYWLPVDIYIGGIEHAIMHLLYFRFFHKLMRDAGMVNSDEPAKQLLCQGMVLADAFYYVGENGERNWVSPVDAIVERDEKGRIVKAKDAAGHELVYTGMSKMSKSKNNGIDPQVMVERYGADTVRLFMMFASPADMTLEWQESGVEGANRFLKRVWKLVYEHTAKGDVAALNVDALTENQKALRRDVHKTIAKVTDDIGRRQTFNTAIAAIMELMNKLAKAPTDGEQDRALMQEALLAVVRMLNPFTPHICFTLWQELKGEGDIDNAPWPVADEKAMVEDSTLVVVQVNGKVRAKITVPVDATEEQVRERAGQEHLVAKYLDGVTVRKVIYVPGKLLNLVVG
# testDetails: Inhibition of recombinant Escherichia coli LeuRS assessed as inhibition of 14C-radiolabelled leucine transfer to tRNA leucine preincubated for 10 mins followed by addition of ATP and measured after 4 mins by Scintillation counting method
# conditionSet: read-out: Ki(app)
measurementLabel: Ki (nM)

molecularString: CC(C)C[C@H](N)C(=O)NS(=O)(=O)OC[C@H]1OC[C@@H](CCCn2cc(CNCc3ccccc3)nn2)[C@H](O)[C@@H]1O
unitAbbreviation: nM
dataValue: 1260
--
molecularString: CC(C)C[C@H](N)C(=O)NS(=O)(=O)OC[C@H]1O[C@@H](CCn2nnc(-c3ccccc3)n2)[C@H](O)[C@@H]1O
unitAbbreviation: nM
dataValue: 30.9
--
molecularString: CC(C)C[C@H](N)C(=O)NS(=O)(=O)OC[C@H]1OC[C@@H](CCCn2cc(CN)nn2)[C@H](O)[C@@H]1O
unitAbbreviation: nM
dataValue: 2970
--
molecularString: CCCCCc1ccc(-c2cn(CCC[C@@H]3CO[C@H](COS(=O)(=O)NC(=O)[C@@H](N)CC(C)C)[C@@H](O)[C@H]3O)nn2)cc1
unitAbbreviation: nM
dataValue: 5.51
--
molecularString: CC(C)C[C@H](N)C(=O)NS(=O)(=O)OC[C@H]1OC[C@@H](CCCn2cc(-c3cccnc3)nn2)[C@H](O)[C@@H]1O
unitAbbreviation: nM
dataValue: 31.6
--
molecularString: CCCCCCCCc1cn(CCC[C@@H]2CO[C@H](COS(=O)(=O)NC(=O)[C@@H](N)CC(C)C)[C@@H](O)[C@H]2O)nn1
unitAbbreviation: nM
dataValue: 52.4
--
molecularString: CC(C)C[C@H](N)C(=O)NS(=O)(=O)OC[C@H]1OC[C@@H](CCCn2cc(CCCCO)nn2)[C@H](O)[C@@H]1O
unitAbbreviation: nM
dataValue: 388
--
molecularString: CC(C)C[C@H](N)C(=O)NS(=O)(=O)OC[C@H]1OC[C@@H](CCCn2cc(CNC(=O)c3ccccc3)nn2)[C@H](O)[C@@H]1O
unitAbbreviation: nM
dataValue: 31.3
--
molecularString: CC(C)C[C@H](N)C(=O)NS(=O)(=O)OC[C@H]1OC[C@@H](CCCn2cc(-c3ccc(OC(F)(F)F)cc3)nn2)[C@H](O)[C@@H]1O
unitAbbreviation: nM
dataValue: 17.8
--
molecularString: CC(C)C[C@H](N)C(=O)NS(=O)(=O)OC[C@H]1OC[C@@H](CCCn2cc(CCc3ccccc3)nn2)[C@H](O)[C@@H]1O
unitAbbreviation: nM
dataValue: 108

====

# Tested on: Escherichia coli
# testDetails: Antibacterial activity against Escherichia coli ATCC8739 assessed as inhibition of bacterial growth measured after 17 hrs by resazurin based flourimetric assay
# Format: functional, organism-based
# conditionSet: ATCC8739, ATCC 8739, 17 h

molecularString: C[C@H]1c2cccc(O)c2C(=O)C2=C(O)[C@]3(O)C(=O)C(C(N)=O)=C(O)[C@@H](N(C)C)[C@@H]3[C@@H](O)[C@@H]21
unitAbbreviation: µM
IC50: 0.73
